Each entry below carries its reported selectivity ratio.
- assay_info: Therapeutic ratio, EC50 for human PBMC to EC50 for human 937 cells
- run_conditions: human PBMC versus human 937 cells
Lab note: write the figure by itself, no unit.

Determine from records and report selectivity ratio for O=C(CCCCCCC(=O)Nc1cc2ccc3cccc4ccc(c1)c2c34)NO 15

Now take the following molecule into account.
Determine from records and report selectivity ratio for O=C(CCCCCCC(=O)Nc1ccc(I)cc1)NO 30

###

- Test system: SK-BR-3
- assay_info: Antiproliferative activity against human SK-BR-3 cells after 48 hrs by cell titer-glo assay
- Format: functional, cell-based
- run_conditions: SK-BR-3, 48 h
Each entry below carries its reported pEC50.
Formally, pEC50 is defined as -log10 of the concentration c, with c in mol/L.

Recorded results for 7 molecules are shown here.
Provide pEC50, system SK-BR-3, entry O=C(CCCCCCC(=O)Nc1ccc(O)cc1)NO 4.96

Provide pEC50, system SK-BR-3, entry O=C(CCCCCCC(=O)Nc1[nH]c(=O)ncc1F)NO 4.39

Provide pEC50, system SK-BR-3, entry O=C(CCCCCCC(=O)Nc1ccccc1Br)NO 4.76

Provide pEC50, system SK-BR-3, entry O=C(CCCCCCC(=O)Nc1ccc2c(c1)Cc1ccccc1-2)NO 5.40

Provide pEC50, system SK-BR-3, entry Nc1ccc(NC(=O)CCCCCCC(=O)NO)cc1 5.07

Provide pEC50, system SK-BR-3, entry CN(C)c1ccc(NC(=O)CCCCCCC(=O)NO)cc1 5.38

Provide pEC50, system SK-BR-3, entry O=C(CCCCCCC(=O)Nc1cccc(Cl)c1)NO 5.70

Now take the following molecule into account.
Provide pEC50, system SK-BR-3, entry O=C(CCCCCCC(=O)Nc1ccc([N+](=O)[O-])cc1)NO 4.24

// data source = ChEMBL document CHEMBL1156940
